Cell viability, Phototoxicity against PANC-1 reference
Test system: PANC-1
Assay: Phototoxicity (PDT), MTT assay, PANC-1
Format: cell-based
Details: 50 μM photosensitizer, 3 h, 50 mW 0.09 J/cm^2 laser 100 sec, 72 h incubation
All answers are understood in %, so give the number only.

C=Cc1c(C)c2cc3nc(c(CC(=O)OC)c4[nH]c(cc5nc(cc1[nH]2)C(C)=C5CC)c(C)c4C(=O)NCCCOCCOCCOCCCNC(=O)CCCC(=O)Oc1ccc(/C=C/C(=O)CC(=O)/C=C/c2ccc(O)c(OC)c2)cc1OC)[C@@H](CCC(=O)OC)[C@@H]3C [Compound 16, Chlorine e6-curcumin Conjugate (16)] : 20.24

Prompt line: Give the measured Cell viability, Phototoxicity against PANC-1 for C=Cc1c(C)c2cc3nc(c(CC(=O)OC)c4[nH]c(cc5nc(cc1[nH]2)C(C)=C5CC)c(C)c4C(=O)NCCOCCOCCNC(=O)CCCC(=O)Oc1ccc(/C=C/C(=O)CC(=O)/C=C/c2ccc(O)c(OC)c2)cc1OC)C(CCC(=O)OC)C3C (stereo not drawn) [Compound 13, Chlorine e6-curcumin Conjugate (13)]
Response line: 7.28

Prompt line: Give the measured Cell viability, Phototoxicity against PANC-1 for C=Cc1c(C)c2cc3nc(c(CC(=O)O)c4[nH]c(cc5nc(cc1[nH]2)C(C)=C5CC)c(C)c4C(=O)O)[C@@H](CCC(=O)O)[C@@H]3C
Response line: 7.61

* * *

Test: Dark cytotoxicity, MTT assay, MIA-PaCa-2
Type: cell-based
Conditions: human, MIA-PaCa-2 cells; 50 μM photosensitizer, 3 h, no light, 72 h incubation; read-out: Cell viability, Dark cytotoxicity against MIA-PaCa-2
experimentalEndpoint: viability at 50 μM (%)
All answers are understood in %, so give the number only.

Solved entries (count: 3):
C=Cc1c(C)c2cc3nc(c(CC(=O)OC)c4[nH]c(cc5nc(cc1[nH]2)C(C)=C5CC)c(C)c4C(=O)NCCCOCCOCCOCCCNC(=O)CCCC(=O)Oc1ccc(/C=C/C(=O)CC(=O)/C=C/c2ccc(O)c(OC)c2)cc1OC)[C@@H](CCC(=O)OC)[C@@H]3C [Compound 16, Chlorine e6-curcumin Conjugate (16)] : 72.8
C=Cc1c(C)c2cc3nc(c(CC(=O)OC)c4[nH]c(cc5nc(cc1[nH]2)C(C)=C5CC)c(C)c4C(=O)NCCCCCCNC(=O)CCCC(=O)Oc1ccc(/C=C/C(=O)CC(=O)/C=C/c2ccc(O)c(OC)c2)cc1OC)C(CCC(=O)OC)C3C (stereo not shown) [Compound 10, Chlorine e6-curcumin Conjugate (10)] : 48.7
C=Cc1c(C)c2cc3nc(c(CC(=O)OC)c4[nH]c(cc5nc(cc1[nH]2)C(C)=C5CC)c(C)c4C(=O)NCCOCCOCCNC(=O)CCCC(=O)Oc1ccc(/C=C/C(=O)CC(=O)/C=C/c2ccc(O)c(OC)c2)cc1OC)C(CCC(=O)OC)C3C (stereo not shown) [Compound 13, Chlorine e6-curcumin Conjugate (13)] : 66.8

Next compound, please.
Prompt line: Give the measured viability at 50 μM for C=Cc1c(C)c2cc3nc(c(CC(=O)O)c4[nH]c(cc5nc(cc1[nH]2)C(C)=C5CC)c(C)c4C(=O)O)[C@@H](CCC(=O)O)[C@@H]3C
Response line: 100

Attribution: patent US20200172549A1
